# measured on: human CD73 (Homo sapiens, UniProt P21589)
# Sequence (P21589 27-549): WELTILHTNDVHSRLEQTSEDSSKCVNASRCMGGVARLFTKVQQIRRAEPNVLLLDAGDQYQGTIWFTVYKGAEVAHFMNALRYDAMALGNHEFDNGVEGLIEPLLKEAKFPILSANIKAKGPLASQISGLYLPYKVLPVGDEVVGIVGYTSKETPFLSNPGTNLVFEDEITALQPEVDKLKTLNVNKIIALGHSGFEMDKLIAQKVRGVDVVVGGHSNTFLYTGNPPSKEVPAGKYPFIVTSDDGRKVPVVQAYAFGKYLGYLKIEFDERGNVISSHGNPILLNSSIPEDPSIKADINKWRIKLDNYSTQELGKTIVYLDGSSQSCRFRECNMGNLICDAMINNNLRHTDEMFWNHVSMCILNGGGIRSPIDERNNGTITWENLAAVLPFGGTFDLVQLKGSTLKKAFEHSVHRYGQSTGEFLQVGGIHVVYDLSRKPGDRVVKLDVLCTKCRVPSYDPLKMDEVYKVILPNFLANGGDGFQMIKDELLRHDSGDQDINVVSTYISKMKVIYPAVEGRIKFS
# run description: Inhibition of Ecto-5′-nucleotidase (CD73) activity in CHO-CD73 cells, phosphate release from AMP
# protocol conditions: CHO-K1 cells stably transfected with human CD73; 25 μM AMP; 50 minutes, 37° C.; read-out: Potency: CD73 IC50
assay endpoint: IC50

Answered cases to consult:
Nc1cccc(Cn2nccc2-c2cc(Cl)c3nnn(-c4ccc5[nH]c(=O)[nH]c5c4)c3c2)n1 | > 1000 nM
Cc1cnn(Cc2ccc(C#N)cc2)c1-c1cc(F)c2nnn(-c3ccc4[nH]c(=O)[nH]c4c3)c2c1 | 100 to 1000 nM
Nc1nn(-c2ccc3cn[nH]c3c2)c2cc(-c3ccnn3Cc3ccc(Cl)cn3)cnc12 | 100 to 1000 nM

Turning to the following compound.
# lookup: IC50 of N#Cc1ccc(Cn2nccc2-c2cc(F)c3nnn(-c4ccc5[nH]c(=O)[nH]c5c4)c3c2)c(C#N)c1 100 to 1000 nM

====

IC50 values for the molecules below.
# measured on: human CD73 (Homo sapiens)
# Sequence (P21589 27-549): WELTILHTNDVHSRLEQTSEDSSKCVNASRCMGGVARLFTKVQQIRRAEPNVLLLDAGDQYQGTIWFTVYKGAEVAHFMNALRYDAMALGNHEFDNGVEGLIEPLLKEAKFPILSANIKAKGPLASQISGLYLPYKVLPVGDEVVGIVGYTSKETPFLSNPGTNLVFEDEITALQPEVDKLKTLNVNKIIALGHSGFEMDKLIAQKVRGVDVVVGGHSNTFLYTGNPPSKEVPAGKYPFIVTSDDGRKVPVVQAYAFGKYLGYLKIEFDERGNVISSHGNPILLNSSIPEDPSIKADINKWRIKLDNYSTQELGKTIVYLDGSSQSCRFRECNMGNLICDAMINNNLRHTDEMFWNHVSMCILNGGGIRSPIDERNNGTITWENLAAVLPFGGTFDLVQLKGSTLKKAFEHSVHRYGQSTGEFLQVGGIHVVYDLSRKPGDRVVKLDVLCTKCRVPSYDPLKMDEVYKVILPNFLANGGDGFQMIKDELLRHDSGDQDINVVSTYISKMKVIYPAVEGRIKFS
# run description: Inhibition of Ecto-5′-nucleotidase (CD73) activity in CHO-CD73 cells, phosphate release from AMP
# protocol conditions: CHO-K1 cells stably transfected with human CD73; 25 μM AMP; 50 minutes, 37° C.; read-out: Potency: CD73 IC50

Answered cases to consult:
O=C1CCC(c2cc(F)c3nnn(-c4ccc5cn[nH]c5c4)c3c2)N1Cc1ccc(Cl)cc1Cl (stereo not drawn) [Example 143] | > 1000 nM
N#Cc1ccc(Cn2ncc(C#N)c2-c2cc(F)c3nnn(-c4ccc5[nH]c(=O)[nH]c5c4)c3c2)cc1 [Example 330] | > 1000 nM
COc1cc(F)ccc1Cn1nccc1-c1cc(F)c2nnn(-c3ccc4[nH]c(=O)[nH]c4c3)c2c1 [Example 236] | > 1000 nM
N#Cc1ccc(Cn2nccc2-c2cc(F)c3nnn(-c4ccc5[nH]c(=O)[nH]c5c4)c3c2)c(CN[C@H]2CCOC2)c1 [Example 277] | > 1000 nM
N#Cc1ccc(Cn2nccc2-c2cc3c(cn2)nnn3-c2ccc3[nH]c(=O)[nH]c3c2)cc1 [Example 154] | 100 to 1000 nM
Cc1ccc(C(C)n2nccc2-c2cc(Cl)c3nnn(-c4ccc5cn[nH]c5c4)c3c2)[n+]([O-])c1 (stereo not drawn) [Example 390] | 100 to 1000 nM
N#CCc1ccc(Cn2nccc2-c2cc(F)c3nnn(-c4ccc5[nH]c(=O)[nH]c5c4)c3c2)cc1 [Example 319] | > 1000 nM
N#Cc1ccc(Cn2nccc2-c2cc3c(cn2)nnn3-c2ccc3[nH]c(=O)[nH]c3c2)nc1 [Example 178] | 100 to 1000 nM

# lookup: IC50 of N#Cc1ccc(Cn2nccc2-c2cc(F)c3nnn(-c4ccc5c(CNC(=O)CN)n[nH]c5c4)c3c2)cc1 [Example 351] > 1000 nM

# lookup: IC50 of N#Cc1ccc(Cn2nccc2-c2cc(F)c3nnn(-c4ccc5c(CCO)n[nH]c5c4)c3c2)cc1 [Example 349] > 1000 nM

# lookup: IC50 of O=c1[nH]c2ccc(-n3ncc4ncc(-c5ccnn5Cc5ccc(Cl)cc5Cl)cc43)cc2[nH]1 [Example 190] 100 to 1000 nM

# lookup: IC50 of O=c1[nH]c2ccc(-n3nnc4c(F)cc(-c5ccnn5CCc5cccc(Cl)c5)cc43)cc2[nH]1 [Example 215] > 1000 nM

# lookup: IC50 of N#Cc1ccc(Cn2nccc2-c2cc(Cl)c3nnn(-c4ccc5[nH]c(=O)[nH]c5c4)c3c2)c(N2CCOCC2)c1 [Example 288] > 1000 nM

# lookup: IC50 of Cc1cc2nnn(-c3ccc4cn[nH]c4c3)c2cc1-c1ccnn1C(C)c1ccc(Cl)cn1 (stereo not drawn) [Example 399] > 1000 nM

# lookup: IC50 of O=c1[nH]c2cc(-n3nnc4c(F)cc(-c5ccnn5Cc5ccc(Cl)cn5)cc43)ccc2o1 [Example 161] > 1000 nM
